system-name: Recombinant human cathepsin A (Homo sapiens (Human), UniProt P10619)
Sequence (P10619 29-326): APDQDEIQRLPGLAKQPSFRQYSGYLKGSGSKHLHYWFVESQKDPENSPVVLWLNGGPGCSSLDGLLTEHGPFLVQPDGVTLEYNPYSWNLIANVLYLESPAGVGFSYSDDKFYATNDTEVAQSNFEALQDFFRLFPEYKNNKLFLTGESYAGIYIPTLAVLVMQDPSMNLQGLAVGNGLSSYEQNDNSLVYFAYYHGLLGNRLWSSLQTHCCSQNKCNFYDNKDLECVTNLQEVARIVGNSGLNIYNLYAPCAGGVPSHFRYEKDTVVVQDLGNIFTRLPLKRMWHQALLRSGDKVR
Sequence (P10619 327-480): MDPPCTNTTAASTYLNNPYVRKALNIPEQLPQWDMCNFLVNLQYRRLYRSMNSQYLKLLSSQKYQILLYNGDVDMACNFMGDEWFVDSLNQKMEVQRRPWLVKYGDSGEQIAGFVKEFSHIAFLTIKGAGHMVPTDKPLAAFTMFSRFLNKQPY
test-name: Cathepsin A inhibitory activity (Bodipy FL-labeled bradykinin substrate, microfluidic capillary electrophoresis)
Type: biochemical
test-parameters: read-out: CATHA IC50
Output: class label from IC50. Mapping: lower band = under 1000 nM, central band = from 1000 nM up to 3000 nM, upper band = 3000 nM and over

Study these solved cases before continuing.
compound	label
O=C(O)CC(c1cccc(-c2cccc(OCc3ccccc3)c2)c1)c1nccs1 (stereo not shown)	central band
Cc1cccc(-c2cccc(C(CC(=O)O)c3nccs3)c2)c1Cl (stereo not shown)	lower band
O=C(O)CC(c1cccc(-c2cccnc2Cl)c1)c1nccs1 (stereo not shown)	upper band

Which category does the recorded IC50 put N#CCOc1cccc(-c2cccc(C(CC(=O)O)c3nccs3)c2)c1 (stereo not shown) in?
central band

Which category does the recorded IC50 put COc1ccc(-c2cccc(Cl)c2C)cc1C(CC(=O)O)c1ncc(C)s1 (stereo not shown) in?
central band

Which category does the recorded IC50 put COc1ccc(-c2ccccc2Cl)cc1C(CC(=O)O)c1ncc(C)s1 (stereo not shown) in?
upper band

Which category does the recorded IC50 put O=C(O)CC(c1cccc(-c2ccnc(F)c2)c1)c1nccs1 (stereo not shown) in?
upper band

Which category does the recorded IC50 put COc1cc(F)c(-c2cccc(C(CC(=O)O)c3nccs3)c2)cc1F (stereo not shown) in?
central band

Which category does the recorded IC50 put Cc1nnc(C(CC(=O)O)c2cccc(-c3cccc(Cl)c3Cl)c2)o1 (stereo not shown) in?
lower band

Which category does the recorded IC50 put Cc1cccc(-c2cccc(C(CC(=O)O)c3nccs3)c2)c1 (stereo not shown) in?
lower band

Which category does the recorded IC50 put Cc1ccc(F)c(-c2cc(Cl)cc(C(CC(=O)O)c3ncc(C)s3)c2)c1 (stereo not shown) in?
lower band

Which category does the recorded IC50 put Nc1ccc(-c2cccc(C(CC(=O)O)c3nccs3)c2)c(F)n1 (stereo not shown) in?
central band
